I'd be grateful if you could share measured protein stability index for these entries.
B1: KRT15 (parent)
chain: SNFHINVEESVDGQVVSSHKREI

variants of: B1; experiment: protein stability index of a GFP-peptide fusion (GPS, HEK-293T) (PSI 1-6); higher = more stable; conditions: c terminus: native;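 further: lentivirally expressed fusions sorted by FACS into six bins by GFP to DsRed ratio, PSI derived from sequencing read proportions per bin multiplied by bin number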
One number for each entry.

- sequence entry: "SNFHINAEESVDGQVVSSHKREI [V7A]"
  recorded metric: "protein stability index"
  readout number: 2.76
- sequence entry: "SNFHINVEELVDGQVVSSHKREI [S10L]"
  recorded metric: "protein stability index"
  readout number: 1.38
- sequence entry: "SNFHINVEESVDGQNVSSHKREI [V15N]"
  recorded metric: "protein stability index"
  readout number: 2.52
- sequence entry: "SNFHINVEESVDGYVVSSHKREI [Q14Y]"
  recorded metric: "protein stability index"
  readout number: 1.72
- sequence entry: "SNFHINVEESVDGQVVSSHKRWI [E22W]"
  recorded metric: "protein stability index"
  readout number: 3.94
- sequence entry: "DNFHINVEESVDGQVVSSHKREI [S1D]"
  recorded metric: "protein stability index"
  readout number: 3.04
- sequence entry: "SNEHINVEESVDGQVVSSHKREI [F3E]"
  recorded metric: "protein stability index"
  readout number: 2.33
- sequence entry: "SNFRINVEESVDGQVVSSHKREI [H4R]"
  recorded metric: "protein stability index"
  readout number: 1.6
- sequence entry: "NNFHINVEESVDGQVVSSHKREI [S1N]"
  recorded metric: "protein stability index"
  readout number: 2.03
- sequence entry: "SNFHINVEESVDIQVVSSHKREI [G13I]"
  recorded metric: "protein stability index"
  readout number: 2.02

// for each variant below, give its protein stability index
1. SNFHINVEESVDGQVVMSHKREI [S17M]
2. SNFHHNVEESVDGQVVSSHKREI [I5H]
3. SNFHENVEESVDGQVVSSHKREI [I5E]
4. FNFHINVEESVDGQVVSSHKREI [S1F]
5. SNFHINVRESVDGQVVSSHKREI [E8R]
6. SNFHINVEESVDGQVVPSHKREI [S17P]

[1.29, 3.01, 3.97, 3.46, 2.02, 1.43]
